quantity_measured: melting point

Solved entries (count: 3):
compound	melting point
CCCn1c(=O)c2[nH]c(/C=C/c3cc(OC)c(OC)cc3OC)nc2n(CCC)c1=O	254 to 256 °C
O=S(=O)(c1ccc(Cl)cc1)C1(c2nnn(Cc3ccccc3)n2)CCCCC1	133 to 134 °C
CC(C)(C(=O)O)C(=O)O	121 to 123 °C

IN: Param item = Cc1c(O)ccc2c1CCCC2=O ; retrieve measured melting point.
OUT: 195 to 197 °C

---

quantity_measured: melting point

Solved entries (count: 5):
molecule	melting point
Cc1nn(-c2ccccn2)c2nc3ccccc3c(N)c12	210 to 213 °C
O=C(O)C1=Cc2cc(Cl)c(Oc3ccc(OC(F)(F)F)cc3)cc2OC1C(F)(F)F (stereo unspecified)	198 to 199 °C
Cc1c(CC(=O)O)oc2ccc(Cl)cc12	149 to 150 °C
Cc1cccc(-c2sc(N)nc2-c2ccnc(-c3ccc(C(=O)NC4CCOCC4)cc3)c2)n1	283 °C
COC(=O)CCc1cccc(-n2c(C)nn(-c3ccc(C#N)cc3)c2=O)c1	134 to 137 °C

IN: Param item = Nc1cccc2c1Cc1ccccc1C2=O ; retrieve measured melting point.
OUT: 158 to 161 °C

IN: Param item = COc1ccc(CCc2ccc(NC(=O)c3ccc(C)cc3O)cc2)cc1OC ; retrieve measured melting point.
OUT: 162 to 164 °C

IN: Param item = OCCCn1c(C2CCCCC2)nc2ccc(Cl)cc21 ; retrieve measured melting point.
OUT: 120 °C

IN: Param item = Cn1nnnc1-c1cnc2cc(Cl)c(F)cc2c1O ; retrieve measured melting point.
OUT: 326 to 330 °C

IN: Param item = Fc1ccc(Nc2ncnc3cnc(NCCN4CCNCC4)nc23)cc1Cl ; retrieve measured melting point.
OUT: 173 to 175 °C
